These measurements were taken from the OligoGym collection.

Each item that follows carries a reported calcium oscillation score.
target: Tau; test: rat primary cortical neurons, FLIPR, 25 uM ASO
Bases are written 5' to 3'; sugars and linkages follow in the same order, as letters with counts (s phosphorothioate, o phosphodiester; PS: all linkages phosphorothioate). The collection does not say whether C is 5-methylated. l = locked nucleic acid (LNA); d = 2'-deoxy (DNA)
parameter.measured: calcium oscillation score

chain	parameter.measured	result
AACCCCATAGACATAA (sugars l4 d8 l4, PS)	calcium oscillation score	78.6 % of control
CCTCCATTAAGAACCTA (sugars l2 d12 l3, PS)	calcium oscillation score	90.1 % of control
CTTTTCCCAATTATTAACC (sugars l3 d14 l2, PS)	calcium oscillation score	54.5 % of control
AGAATATTACACCATC (sugars l4 d8 l4, PS)	calcium oscillation score	102 % of control
AGCTTCGTCTTCCAGGCTGG (sugars l3 d14 l3, PS)	calcium oscillation score	13.3 % of control
ATCTTAATTCATTTAATTCT (sugars l4 d12 l4, PS)	calcium oscillation score	93.1 % of control
ACCCATCAATTTGGAAAGAT (sugars l3 d14 l3, PS)	calcium oscillation score	72.6 % of control
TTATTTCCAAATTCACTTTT (sugars lllddldddddddddldlll, PS)	calcium oscillation score	108 % of control
TGTCGATGCTGCCGGT (sugars l3 d10 l3, PS)	calcium oscillation score	34.5 % of control
TTAATTCATTTAATTCTCTT (sugars l4 d12 l4, PS)	calcium oscillation score	86.1 % of control
ACCTCGTCAGCTAGCG (sugars l3 d10 l3, PS)	calcium oscillation score	65.2 % of control
ACCCAATCTTCGACTG (sugars l3 d10 l3, PS)	calcium oscillation score	43.4 % of control
AAGAGTCACTGCACTGCATT (sugars l3 d14 l3, PS)	calcium oscillation score	30.9 % of control
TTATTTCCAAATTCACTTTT (sugars l4 d11 l2 d1 l2, PS)	calcium oscillation score	104 % of control
GGCGACTTGTACACGA (sugars l3 d10 l3, PS)	calcium oscillation score	69.4 % of control
ACTCTTTGAACACCCCAT (sugars l4 d12 l2, PS)	calcium oscillation score	38.3 % of control
TCTTAGAGGACTGCAACGCA (sugars l3 d14 l3, PS)	calcium oscillation score	25.7 % of control
CGCGGAAGGTCAGCTT (sugars l3 d10 l3, PS)	calcium oscillation score	33.3 % of control
TAAGGCAAGGCCTATT (sugars l3 d10 l3, PS)	calcium oscillation score	27.2 % of control
TCCACTTAGACACTCTTT (sugars l3 d13 l2, PS)	calcium oscillation score	37.5 % of control
CTTGGGTGGAGTACGG (sugars l3 d10 l3, PS)	calcium oscillation score	0 % of control
ACAGGAGAGCCATTTCCCAA (sugars l3 d14 l3, PS)	calcium oscillation score	42.9 % of control
GCCACCTCCTGGTTTA (sugars l3 d10 l3, PS)	calcium oscillation score	86.1 % of control
